ASSAY TARGET: Cellular tumor antigen p53 (Homo sapiens) (UniProt P04637)
Sequence (P04637 whole entry, looked up): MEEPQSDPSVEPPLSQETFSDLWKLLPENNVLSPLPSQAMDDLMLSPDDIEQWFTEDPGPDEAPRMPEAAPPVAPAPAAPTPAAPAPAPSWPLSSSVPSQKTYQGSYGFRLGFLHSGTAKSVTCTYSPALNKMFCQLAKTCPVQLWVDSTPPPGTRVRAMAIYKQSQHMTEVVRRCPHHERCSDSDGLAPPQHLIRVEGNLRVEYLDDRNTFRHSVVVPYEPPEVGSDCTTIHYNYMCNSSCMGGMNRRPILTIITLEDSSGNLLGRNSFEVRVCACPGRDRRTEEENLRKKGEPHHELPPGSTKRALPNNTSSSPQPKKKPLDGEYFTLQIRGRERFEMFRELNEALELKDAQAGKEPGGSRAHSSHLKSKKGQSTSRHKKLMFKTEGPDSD
METHOD NOTES: Primary qHTS for small molecule compounds that upregulate eGFP-tagged delta133p53alpha (in N-terminal) cells. (AID 2060322);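 note: cells pre-induced with doxycycline then dosed without doxycycline; series mostly up to about 56 µM; 0% = DMSO vehicle and 100% = reference activator; nearly all actives have a fitted effect of over 75% in size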
CONDITION SUMMARY: NCI-H358 eGFP-delta133p53alpha fluorescence, 24 h; hits give high values
Results filed as inconclusive are left out.
REPORTED METRIC: activation (%)
// return numeric value only (unit: %, not printed)

Query block: Item Nc1ccc(-n2nc(C(F)(F)F)cc2C(F)(F)F)cc1 has what recorded activation?
Result block: 0.893

Query block: Name the reported activation value associated with the molecule Cc1cccc(S(=O)(=O)N2CCC[C@@H]2CCN2CCC(C)CC2)c1
Result block: 0

Query block: Which value of activation has been reported for O=C(OCc1ccccc1)c1ccc(O)cc1 in the records?
Result block: -15.3

Query block: What activation value was documented for this molecule, CC1(C)CC[C@]2(C(=O)O)CC[C@]3(C)C(=CCC4[C@@]5(C)C[C@H](O)[C@H](O[C@@H]6OC[C@H](O)[C@H](O)[C@H]6O)[C@@](C)(CO)C5CC[C@]43C)[C@@H]2C1 (stereo not given in full) ?
Result block: -9.16

Query block: // lookup activation for CC1COC(Nc2ccc3ncnc(Nc4ccc(OCc5nccs5)c(Cl)c4)c3c2)=N1 (stereo not given)
Result block: 13.4

Query block: # activation lookup, item CCN1CCN(C(=O)N[C@H](C(=O)N[C@@H]2C(=O)N3C(C(=O)O)=C(CSc4nnnn4C)CS[C@@H]23)c2ccc(O)cc2)C(=O)C1=O
Result block: 19.4

Query block: GET /values?readout=activation&item= COc1ccc(CN2CCN(CCCSc3cc(C(C)(C)C)c(O)c(C(C)(C)C)c3)CC2)c(OC)c1OC
Result block: 16.3

Query block: # activation lookup, item O=C(c1ccco1)N1CCNCC1
Result block: -10.9

Query block: Would you kindly share the measured activation for O=[N+]([O-])c1ccc(Oc2ccc3c(c2)CCC(c2ccccc2)O3)nc1 (stereo not given) ?
Result block: 2.33

Query block: Any idea what its activation is? The molecule is COc1c(C(C)C)c(O)c(O)c2c1C(OC)[C@H]1OC(=O)[C@@]23CCCC(C)(C)[C@H]13 (stereo not given in full)
Result block: -1.79

---

Assignment: determine reported activation for the given molecules.
ASSAY TARGET: Cellular tumor antigen p53 (Homo sapiens)
METHOD NOTES: Primary qHTS for small molecule compounds that upregulate eGFP-tagged delta133p53alpha (in N-terminal) cells. (AID 2060322);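 note: cells pre-induced with doxycycline then dosed without doxycycline; series mostly up to about 56 µM; 0% = DMSO vehicle and 100% = reference activator; nearly all actives have a fitted effect of over 75% in size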
CONDITION SUMMARY: NCI-H358 eGFP-delta133p53alpha fluorescence, 24 h; hits give high values
Results filed as inconclusive are left out.
// note: answer is a bare numeric in %

Query block: Need activation of O=C(O)Cc1csc(-c2ccc(Cl)cc2)n1 , thanks.
Result block: 15.3

Query block: Any idea what its activation is? The molecule is N#Cc1cccc(-c2c[nH]c3ncnc(N4CCOCC4)c23)c1
Result block: -5.36

Query block: Fill blank: measured activation of the molecule COc1ccccc1N1CCN(CC[C@@](C)(C(=O)C2CCCCC2)c2ccccc2)CC1 is ____.
Result block: 8.11

Query block: Value lookup for activation; key = CC(C)C(NC(=O)c1ccc2ccccc2n1)C(=O)NC(CC(=O)O)C(=O)COc1c(F)cccc1F (centres undefined)
Result block: 2.33

Query block: Which value of activation has been reported for CC/C=C\CCO[C@@H]1O[C@H](CO)[C@@H](O)[C@H](O)[C@H]1O in the records?
Result block: -18.3

Query block: So what's the measured activation for this one? COC(=O)C1=COC(OC2OC(CO)C(O)C(O)C2O)C2C(COC(=O)/C=C/c3ccc(O)c(O)c3)C(O)C(O)C12 (centres undefined)
Result block: -6.25

Query block: Tell me the measured activation of Cc1c(C)c2c(c(C)c1O)CCC(C)(COc1ccc(CC3SC(=O)NC3=O)cc1)O2 (centres undefined) , please.
Result block: -7.34

Query block: So what does the record say about activation for COc1c2ccoc2nc2c(OC)c(O[C@@H]3O[C@@H](C)[C@H](O)[C@@H](O[C@@H]4O[C@H](CO)[C@@H](O)[C@H](O)[C@H]4O)[C@H]3OC(C)=O)ccc12 ?
Result block: 27.7

Query block: Would you kindly share the measured activation for CC1=CC(=O)C(=C(C)C)CC2C1CCC2(C)O (centres undefined) ?
Result block: -7.14

Query block: Quick one: activation for CN(C)CCOC(C)(c1ccccc1)c1ccccn1 (centres undefined) ?
Result block: -7.21

Query block: State the recorded activation for this entry: CC(C)(C)NCC(O)COc1ccccc1OCC1CCCO1 (centres undefined)
Result block: 10.9

Query block: Recorded activation for COc1cc2c(c(OC)c1O)C(c1ccc(O)cc1)C1C(=O)OC3C(COC(=O)C1=C2)OC(CO)(OC1OC(COC(=O)/C=C/c2ccc(OC4OC(C)C(O)C(O)C4O)cc2)C(O)C(O)C1O)C3O (centres undefined) , please?
Result block: 23.2

Query block: Would you mind telling me what activation value was observed for C/C=C(\C)C(=O)OC1C(C)C2(O)C3C=C(C)C(=O)C3CC(CO)=CC2C2C(C)(C)C12OC(C)=O (centres undefined) ?
Result block: -19.8

Query block: Requested field: activation. Item: COc1ccccc1N1CCN(c2ncnc3n[nH]c(Br)c23)CC1
Result block: 20.5

Query block: Please look up its activation: C/C=C/C1=CC2=C(CO1)C(=O)[C@](C)(O)[C@H](OC(=O)c1c(O)cc(OC)c(O)c1C)C2
Result block: 3.82

Query block: If you can, please state the reported activation value of CCCCC#Cc1nc(NC)c2ncn([C@@H]3O[C@H](CO)[C@@H](O)[C@H]3O)c2n1 .
Result block: -3.87

Query block: Given C/C=C/c1ccc(O)c(OC)c1 , state its recorded activation.
Result block: -0.837

Query block: Query: activation; subject: CN(C)CCCN1c2ccccc2Sc2ccc(Cl)cc21
Result block: -15.3

Query block: Param item = O=C(O)CCC1CCC(c2cc(F)ccc2F)(S(=O)(=O)c2ccc(Cl)cc2)CC1 (centres undefined) ; retrieve measured activation.
Result block: 33.4

Query block: Please give the measured activation for this molecule: Cn1cc(Nc2cnccc2C(=O)O)c2cccnc21
Result block: 4.33

Query block: Recorded activation of COC(=O)C[C@H]1C(C)(C)[C@H](OC(=O)C(C)C)C2CC3=C4CC(=O)O[C@@H](c5ccoc5)[C@]4(C)CCC3[C@@]1(C)C2=O (some centres undefined) , please.
Result block: 11.6

Query block: What activation value was documented for this molecule, NC(=O)Nc1cc(-c2ccc(CN3CCOCC3)cc2)sc1C(N)=O ?
Result block: 3

Query block: Reported activation for CS(=O)(=O)OCCCCOS(C)(=O)=O : what is it?
Result block: -9.57

Query block: Which activation reading was recorded for the molecule CCOc1cc(N2CCC(O)CC2)ccc1Nc1ncc2c(n1)N(C1CCCC1)CCC(=O)N2C ?
Result block: 4.33

Query block: Reported activation for O=C1c2c(O)cccc2Cc2cccc(O)c21 : what is it?
Result block: -24.3

Query block: Recorded activation of CC1CCC2(C(=O)O)CCC3(C)C(=CCC4C5(C)CCC(O)C(C)(CO)C5CCC43C)C2C1(C)O (centres undefined) , please.
Result block: -0.893

Query block: activation for Cn1c2ccc(F)cc2c2c(C(=O)N3CCCC3)cn(-c3ccccc3)c(=O)c21 ?
Result block: -5.25

Query block: I would be grateful if you could share the reported activation for N#C/C(=C\c1ccc(O)c(O)c1)C(=O)NCCCNC(=O)/C(C#N)=C/c1ccc(O)c(O)c1 .
Result block: -33.4

Query block: // query activation value for entry O=C1NC(=O)c2c1c(-c1ccccc1)cc1[nH]c3ccc(O)cc3c21
Result block: -2.02

Query block: Entry CC1C2=CC(=O)OC2(O)CC2C1CCC1C(C)(C)CCC(O)C21C (centres undefined) : reported activation = ?
Result block: 0.763

Query block: Would you mind telling me what activation value was observed for CC(C)=CC[C@@H](O)C1=CC(=O)c2c(O)ccc(O)c2C1=O ?
Result block: 3.62

Query block: Which activation is listed for C/C=C(/C)C(=O)OC1C2OC2C2(CO2)C2C3OC(=O)C(C)C3CCC12C (centres undefined) ?
Result block: 18.3

Query block: Value lookup for activation; key = O=C(Nc1ccccc1-c1cn2c(CN3CCNCC3)csc2n1)c1cnc2ccccc2n1
Result block: -29.5

Query block: # get_value(readout='activation', item= NCCNc1cccc2ccccc12 )
Result block: 24.3

Query block: Item under review: C#Cc1cccc(Nc2ncnc3cc(OCCOC)c(OCCO)cc23)c1 . Reported activation?
Result block: 34

Query block: Requested read-out: activation. Entry: Cn1c(=O)c2nc(/C=C/c3cccc(Cl)c3)n(C)c2n(C)c1=O
Result block: -2.33

Query block: Quick check: activation of Nc1c(NC/C=C\COc2cc(CN3CCCCC3)ccn2)c(=O)c1=O ?
Result block: -10.3

Query block: Which measured activation value corresponds to Cc1ncc(CSSCc2cnc(C)c(O)c2CO)c(CO)c1O ?
Result block: -22

Query block: Quick one: activation for CCC(C)C(=O)O[C@H]1C[C@](C)(O)[C@]23OC(C)(C)[C@H](C[C@H](OC(=O)c4ccccc4)[C@]2(COC(C)=O)[C@H]1OC(=O)C(C)CC)[C@H]3OC(C)=O (some centres undefined) ?
Result block: 11.5
